Target: aromatase (Homo sapiens)
Construct: microsomes obtained from human placenta; from tissue; host or cells: human placenta (microsomes)
Sequence (P11511 1-503): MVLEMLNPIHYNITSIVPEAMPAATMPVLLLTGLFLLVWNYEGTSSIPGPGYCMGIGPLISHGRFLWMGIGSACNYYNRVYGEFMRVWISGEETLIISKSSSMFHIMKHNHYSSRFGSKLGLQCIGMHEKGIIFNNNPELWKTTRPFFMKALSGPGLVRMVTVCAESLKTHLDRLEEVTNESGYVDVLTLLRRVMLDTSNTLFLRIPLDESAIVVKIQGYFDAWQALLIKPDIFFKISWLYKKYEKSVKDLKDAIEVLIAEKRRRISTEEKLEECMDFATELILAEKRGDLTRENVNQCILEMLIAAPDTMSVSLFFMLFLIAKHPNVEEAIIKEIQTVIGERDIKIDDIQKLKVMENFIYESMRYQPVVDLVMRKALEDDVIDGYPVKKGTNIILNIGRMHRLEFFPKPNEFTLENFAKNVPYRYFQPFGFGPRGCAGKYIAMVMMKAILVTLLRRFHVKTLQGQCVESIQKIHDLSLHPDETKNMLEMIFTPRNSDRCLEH
Assay: Aromatase inhibition in human placenta (Test a): microsomes, release of 3H2O from [1β-3H]-androstenedione, Ki by Dixon plot
Type: biochemical
Details: human placenta microsomes; [1β-3H]-androstenedione substrate; 4-OH-androstenedione as reference compound; read-out: Ki, Aromatase
measurement_type: Ki (nM)
Numbers only, in nM.

> print(dat)
                                   compound              study.system  measurement.type  reported.result
1  N#Cc1ccc(C(=C2CCCCC2)n2ccnc2)cc1 [Compound B]  aromatase (Homo sapiens)                Ki             0.48

From here, focus on the item given below.
stdin: Give the reported value of Ki for this record: Cl.N#Cc1ccc(C(=C2CCCCC2)n2ccnc2)cc1 [Compound A, hydrochloride]
stdout: 0.19
